# target desc: human recombinant GST-PAK1-KD protein (Homo sapiens, UniProt Q13153)
# Construct: residues #249-545 of human PAK1, UniProtKP/Swiss Q13153; His6 (N); made in house; host or cells: Sf9 insect cells, pAcGP67 baculovirus expression vector
# Sequence (Q13153 249-545): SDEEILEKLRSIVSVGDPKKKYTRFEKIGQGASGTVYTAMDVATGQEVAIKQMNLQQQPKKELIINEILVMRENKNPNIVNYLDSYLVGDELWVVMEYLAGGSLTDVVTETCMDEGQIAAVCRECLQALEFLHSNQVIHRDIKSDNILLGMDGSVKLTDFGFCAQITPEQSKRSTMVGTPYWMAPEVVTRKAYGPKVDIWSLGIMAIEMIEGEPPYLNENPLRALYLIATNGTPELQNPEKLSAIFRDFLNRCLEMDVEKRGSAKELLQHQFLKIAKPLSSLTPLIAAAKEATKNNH
# experiment summary: GST-PAK1-KD (kinase domain) biochemical assay, microfluidic mobility shift
# conditions: Table II, PAK1 Ki class; read-out: Ki
Listed here: items and their measured Ki.

Would you please look over these solved cases?
INSERT INTO results (compound, result) VALUES
  ('CN(Cc1ccc2[nH]cnc2c1Cl)c1ncc(F)c(Nc2cc(C(F)(F)F)[nH]n2)n1', '50 to 250 nM'),
  ('COc1n[nH]c2cccc(CNc3nccc(Nc4cc(C5CC5)[nH]n4)n3)c12', '< 50 nM'),
  ('C[C@H](Nc1nccc(Nc2cc(C3CC3)[nH]n2)n1)c1c(F)ccc2[nH]ncc12', '< 50 nM'),
  ('Cc1n[nH]c2cc(Cl)cc(CNc3nccc(Nc4cc(C5CC5)[nH]n4)n3)c12', '< 50 nM'),
  ('C[C@H](Nc1nccc(Nc2cc(C3CC3)[nH]n2)n1)c1cccc2[nH]cnc12', '50 to 250 nM'),
  ('CCN(Cc1cc(F)cc2[nH]ncc12)c1nccc(Nc2cc([C@H](C)C3CC3)[nH]n2)n1', '< 50 nM');

Find the measured Ki of `Clc1c(CNc2nccc(Nc3cc(COC4CCC4)[nH]n3)n2)ccc2[nH]cnc12` and report it.
50 to 250 nM

Please give the documented Ki of `CN(Cc1ccc2nc[nH]c2c1Cl)c1nccc(Nc2cc(CCC#N)[nH]n2)n1`
50 to 250 nM

Please list Ki recorded for the compound `CN(Cc1ccc2[nH]cnc2c1Cl)c1nccc(Nc2cc([C@H]3CC3(F)F)[nH]n2)n1`
< 50 nM

Recall and state the measured Ki for `Cc1cc2[nH]cnc2cc1[C@H](C)Nc1nccc(Nc2cc(C3CC3)[nH]n2)n1` .
50 to 250 nM

Indicate its recorded Ki; the compound in question is `OCCN(Cc1cc(F)cc2[nH]ncc12)c1nccc(Nc2cc(C3CC3)[nH]n2)n1`
< 50 nM

Quickly give me recorded Ki for `CO[C@@H](C)CN(Cc1cc(F)cc2[nH]ncc12)c1nccc(Nc2cc(C3CC3)[nH]n2)n1`
< 50 nM

Identify measured Ki corresponding to `CN(Cc1ccc2[nH]cnc2c1)c1nc(Nc2cc(C3CC3)[nH]n2)cc(C(C)(C)O)n1`
< 50 nM

Specify Ki for `COCCc1cc(Nc2ccnc(N(C)Cc3ccc4[nH]cnc4c3Cl)n2)n[nH]1` and stop.
50 to 250 nM

Tell me Ki reported for `CCN(Cc1ccc2[nH]cnc2c1Cl)c1ncc(F)c(Nc2cc([C@@H]3C[C@@H]3F)[nH]n2)n1`
< 50 nM

Supply measured Ki of `Clc1c[nH]c2cccc(CNc3nccc(Nc4cc(C5CC5)[nH]n4)n3)c12` in your reply.
< 50 nM

Find the measured Ki of `C[C@H](O)CN(Cc1cc(F)cc2[nH]ncc12)c1nccc(Nc2cc(C3CC3)[nH]n2)n1` and report it.
< 50 nM

Please indicate Ki recorded for `CCN(Cc1cc(F)cc2[nH]ncc12)c1nccc(Nc2cc(C3CC3)[nH]n2)n1`
< 50 nM

Query Ki for `CN(Cc1ccc2[nH]cnc2c1Cl)c1nccc(Nc2cc(C3COC3)[nH]n2)n1`
< 50 nM

Give me measured Ki, please, for this compound: `COC[C@@H](C)c1cc(Nc2ccnc(N(C)Cc3ccc4[nH]cnc4c3Cl)n2)n[nH]1`
< 50 nM

----------
Listed here are compounds together with their documented Ki.
# target desc: human recombinant GST-PAK1-KD protein (Homo sapiens)
# Construct: residues #249-545 of human PAK1, UniProtKP/Swiss Q13153; His6 (N); made in house; host or cells: Sf9 insect cells, pAcGP67 baculovirus expression vector
# experiment summary: GST-PAK1-KD (kinase domain) biochemical assay, microfluidic mobility shift
# conditions: Ki, Table I, PAK1 Ki class

Below: 2 compounds and their reported Ki.
INSERT INTO measurements (compound, measurement_type, result) VALUES
  ('C[C@H](Nc1nccc(Nc2cc(C3CC3)[nH]n2)n1)c1ccc2[nH]ccc2c1 [I-8]', 'Ki', '< 50 nM'),
  ('C[C@@H](Nc1nccc(Nc2cc(C3CC3)[nH]n2)n1)c1ccc2[nH]ccc2c1 [I-60]', 'Ki', '> 1000 nM');

Answer with the recorded Ki of Clc1c(CNc2nccc(Nc3cc(C4CC4)[nH]n3)n2)ccc2[nH]cnc12 [I-3] only.
< 50 nM

Read the entry C[C@H](Nc1nccc(Nc2cc(C3CC3)[nH]n2)n1)c1ccc2[nH]cnc2c1 [I-5] and write its reported Ki.
< 50 nM

----------
# target desc: human recombinant GST-PAK1-KD protein (Homo sapiens, UniProt Q13153)
# Construct: residues #249-545 of human PAK1, UniProtKP/Swiss Q13153; His6 (N); made in house; host or cells: Sf9 insect cells, pAcGP67 baculovirus expression vector
# experiment summary: GST-PAK1-KD (kinase domain) biochemical assay, microfluidic mobility shift
# conditions: GST-PAK1-KD Inhibition Assay - Example 65; read-out: PAK1 inhibition Ki
Entries get a class label from measured Ki. See ranges: bottom = under 10 nM, middle = from 10 nM up to 40 nM, top = 40 nM and over

INSERT INTO measurements (compound, category_label) VALUES
  ('c1cc(CNc2nccc(Nc3cc(C4CC4)[nH]n3)n2)c2cn[nH]c2c1', 'middle'),
  ('Fc1cnc(NCc2cc(Cl)cc3[nH]cnc23)nc1Nc1cc(C2CC2)[nH]n1', 'middle'),
  ('CN(Cc1ccc2[nH]cnc2c1)c1nc(Nc2cc(C3CC3)[nH]n2)cc(C(C)(C)O)n1', 'top'),
  ('FC(F)(F)c1cc(Nc2cc(C3CC3)[nH]n2)nc(NCc2ccc3[nH]cnc3c2)n1', 'middle');

Now for a further compound.
Field: class (Ki) — entry: `Cc1cc(Nc2cc(C3CC3)[nH]n2)nc(N[C@@H](C)c2ccc3[nH]ccc3c2)n1`
middle

----------
# target desc: human recombinant GST-PAK1-KD protein (Homo sapiens)
# Construct: residues #249-545 of human PAK1, UniProtKP/Swiss Q13153; His6 (N); made in house; host or cells: Sf9 insect cells, pAcGP67 baculovirus expression vector
# experiment summary: GST-PAK1-KD (kinase domain) biochemical assay, microfluidic mobility shift
# conditions: Table I, PAK1 Ki class; read-out: Ki
pKi: −log10 of the molar value.
measurement type: pKi

Input `Cc1cc(Nc2ccnc(N[C@@H](C)c3ccc4[nH]ccc4c3)n2)n[nH]1` , output reported pKi.
6.00 to 6.60

----------
# target desc: human recombinant GST-PAK1-KD protein (Homo sapiens, UniProt Q13153)
# Construct: residues #249-545 of human PAK1, UniProtKP/Swiss Q13153; His6 (N); made in house; host or cells: Sf9 insect cells, pAcGP67 baculovirus expression vector
# experiment summary: GST-PAK1-KD (kinase domain) biochemical assay, microfluidic mobility shift
# conditions: GST-PAK1-KD Inhibition Assay - Example 65; read-out: PAK1 inhibition Ki
// reported pKi for each item listed
Notebook: values listed as pKi are -log10 of the concentration (mol/L).

INSERT INTO results (structure_notation, measurement_type, result_number) VALUES
  ('COCCc1cc(Nc2ccnc(N(C)Cc3ccc4[nH]cnc4c3Cl)n2)n[nH]1', 'pKi', 7.20),
  ('CN(Cc1ccc2nc[nH]c2c1Cl)c1nccc(Nc2cc(CCC#N)[nH]n2)n1', 'pKi', 6.78),
  ('CCN(Cc1ccc2[nH]cnc2c1Cl)c1nccc(Nc2cc(C(C)C)[nH]n2)n1', 'pKi', 8.80);

Please give the documented pKi of `Cc1n[nH]c2cc(Cl)cc(CNc3ncc(F)c(Nc4cc(C5CC5)[nH]n4)n3)c12`
7.38

Read the entry `COCCN(Cc1cc(F)cc2[nH]ncc12)c1nccc(Nc2cc(C3CC3)[nH]n2)n1` and write its reported pKi.
7.43

----------
Readings of Ki for the listed compounds
# target desc: human recombinant GST-PAK1-KD protein (Homo sapiens, UniProt Q13153)
# Construct: residues #249-545 of human PAK1, UniProtKP/Swiss Q13153; His6 (N); made in house; host or cells: Sf9 insect cells, pAcGP67 baculovirus expression vector
# experiment summary: GST-PAK1-KD (kinase domain) biochemical assay, microfluidic mobility shift
# conditions: Table I, PAK1 Ki class; read-out: Ki

INSERT INTO measurements (compound, result) VALUES
  ('c1cc(Nc2cc(C3CC3)[nH]n2)nc(NCc2ccc3cc[nH]c3c2)n1', '> 1000 nM'),
  ('Clc1c(CNc2nccc(Nc3cc(C4CCC4)[nH]n3)n2)ccc2[nH]cnc12', '< 50 nM'),
  ('Cc1cc2[nH]cnc2cc1CNc1nccc(Nc2cc(C3CC3)[nH]n2)n1', '250 to 1000 nM');

API: the following record is the query input.
Answer with reported Ki of C[C@H](Nc1nccc(Nc2cc(C3CCOC3)[nH]n2)n1)c1ccc2[nH]cnc2c1 (stereo partly drawn)
< 50 nM
